Molecular target: Proteasome Macropain subunit MB1 (Homo sapiens)
Sequence (P28074 whole entry): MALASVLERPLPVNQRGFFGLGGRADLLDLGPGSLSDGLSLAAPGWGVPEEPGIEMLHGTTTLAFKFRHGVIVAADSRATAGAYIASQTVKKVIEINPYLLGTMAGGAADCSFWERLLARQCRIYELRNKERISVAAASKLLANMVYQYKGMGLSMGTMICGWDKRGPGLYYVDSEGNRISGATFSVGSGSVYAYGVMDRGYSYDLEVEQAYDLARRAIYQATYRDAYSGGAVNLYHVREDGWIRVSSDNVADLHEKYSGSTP
Experiment: Inhibition of chymotrypsin-like activity of human 20S proteasome preincubated for 15 mins followed by addition of Suc-Leu-Leu-Val-Tyr-AMC as substrate by fluorescence analysis
pIC50 for assorted molecules
API: returns pIC50 as number; meaning -log10 of concentration in mol/L.

Examples with answers:
O=C(Nc1ccccc1)C1CCN(C(=O)N[C@@H](CCc2ccccc2)C(=O)N[C@@H](CCc2ccccc2)C(=O)NCc2ccccc2Cl)CC1: 8.52
O=C(Nc1ccc(F)cc1)C1CCN(C(=O)N[C@@H](CCc2ccccc2)C(=O)N[C@@H](CCc2ccccc2)C(=O)NCc2ccccc2Cl)CC1: 7.77
O=C(NC1CCN(C(=O)N[C@@H](Cc2ccccc2)C(=O)N[C@@H](CCc2ccccc2)C(=O)NCc2ccccc2Cl)CC1)c1cnccn1: 6.46
CC(C)C[C@H](NC(=O)N1CCC(NC(=O)c2cnccn2)CC1)C(=O)N[C@@H](CCc1ccccc1)C(=O)NCc1ccccc1Cl: 7.34
O=C(Nc1ccccn1)C1CCN(C(=O)N[C@@H](CCc2ccccc2)C(=O)N[C@@H](CCc2ccccc2)C(=O)NCc2ccccc2Cl)CC1: 8.62
O=C(Nc1nccs1)C1CCN(C(=O)N[C@@H](CCc2ccccc2)C(=O)N[C@@H](CCc2ccccc2)C(=O)NCc2ccccc2Cl)CC1: 8.37

input: Need pIC50 of "COc1ccc(NC(=O)C2CCN(C(=O)N[C@@H](CCc3ccccc3)C(=O)N[C@@H](CCc3ccccc3)C(=O)NCc3ccccc3Cl)CC2)cc1" , thanks.
output: 7.80

These entries and their values trace back to ChEMBL document CHEMBL3864143.
